Data origin, for the record: patent US10925971B2

Biological target: T1, human PRLR on HEK293/hPRLR cells (Homo sapiens, UniProt P16471)
T1 construct: HA; expressed in transfected cells; host or cells: HEK293
T1 sequence (P16471 25-622): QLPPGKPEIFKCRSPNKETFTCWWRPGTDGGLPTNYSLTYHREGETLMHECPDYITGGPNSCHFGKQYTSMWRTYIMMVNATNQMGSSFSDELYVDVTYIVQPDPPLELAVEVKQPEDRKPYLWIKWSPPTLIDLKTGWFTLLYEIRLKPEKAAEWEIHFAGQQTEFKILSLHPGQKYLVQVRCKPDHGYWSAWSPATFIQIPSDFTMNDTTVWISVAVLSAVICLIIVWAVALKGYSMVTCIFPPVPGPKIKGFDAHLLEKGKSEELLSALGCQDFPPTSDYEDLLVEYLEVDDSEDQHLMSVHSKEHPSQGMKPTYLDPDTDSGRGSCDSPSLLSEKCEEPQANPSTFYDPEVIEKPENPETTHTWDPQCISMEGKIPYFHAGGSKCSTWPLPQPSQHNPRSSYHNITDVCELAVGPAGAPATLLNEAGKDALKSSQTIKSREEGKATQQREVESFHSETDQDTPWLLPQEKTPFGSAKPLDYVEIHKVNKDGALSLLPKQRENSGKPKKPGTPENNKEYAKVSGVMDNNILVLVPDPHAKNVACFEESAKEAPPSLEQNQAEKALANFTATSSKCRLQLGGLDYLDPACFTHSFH
Test: FACS cell surface binding
attribute_measured: FACS Cell Binding (Fold Above Background)
# value in Fold Above Background; strip the unit string

// query Fill in the blank: the reported FACS Cell Binding of H1H6797P: fully human anti-PRLR antibody, human IgG1 Fc; HCVR/LCVR SEQ ID NOs 178/186 (antibody, V domains shown) VH: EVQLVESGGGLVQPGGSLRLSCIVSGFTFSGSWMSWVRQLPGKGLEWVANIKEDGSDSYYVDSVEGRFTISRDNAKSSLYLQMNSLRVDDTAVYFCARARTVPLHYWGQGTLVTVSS VL: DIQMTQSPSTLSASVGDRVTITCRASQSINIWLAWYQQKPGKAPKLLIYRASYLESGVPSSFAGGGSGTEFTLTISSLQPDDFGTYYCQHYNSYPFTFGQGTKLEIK is ____.
// result 1

// query Fill in the blank: the reported FACS Cell Binding of H1H6801P: fully human anti-PRLR antibody, human IgG1 Fc; HCVR/LCVR SEQ ID NOs 210/218 (antibody, V domains shown) VH: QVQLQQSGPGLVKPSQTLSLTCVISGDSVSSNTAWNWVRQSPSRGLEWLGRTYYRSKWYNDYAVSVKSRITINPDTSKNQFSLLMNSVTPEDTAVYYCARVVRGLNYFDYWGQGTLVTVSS VL: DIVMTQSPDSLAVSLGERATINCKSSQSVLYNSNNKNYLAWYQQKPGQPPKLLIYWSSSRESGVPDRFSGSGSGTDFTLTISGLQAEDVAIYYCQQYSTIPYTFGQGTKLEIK is ____.
// result 47
